TESTED_TARGET: T1, human erythropoietin receptor (huEpoR), cell surface expressed (human) (UniProt P19235)
T1 sequence (looked up): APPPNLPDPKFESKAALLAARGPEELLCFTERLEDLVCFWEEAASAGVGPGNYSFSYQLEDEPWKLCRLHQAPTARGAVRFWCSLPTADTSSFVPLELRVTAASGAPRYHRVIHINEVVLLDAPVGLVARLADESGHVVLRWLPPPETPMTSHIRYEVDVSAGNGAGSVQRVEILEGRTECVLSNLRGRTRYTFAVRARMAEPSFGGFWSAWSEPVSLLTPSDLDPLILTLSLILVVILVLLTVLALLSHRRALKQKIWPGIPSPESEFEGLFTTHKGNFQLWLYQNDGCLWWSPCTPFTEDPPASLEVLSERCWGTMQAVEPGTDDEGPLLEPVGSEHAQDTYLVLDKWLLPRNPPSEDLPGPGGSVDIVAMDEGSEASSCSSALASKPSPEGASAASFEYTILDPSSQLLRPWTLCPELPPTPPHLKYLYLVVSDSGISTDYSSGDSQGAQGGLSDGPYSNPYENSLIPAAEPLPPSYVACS
ASSAY_SUMMARY: cell-based or functional assay
MEASUREMENT_TYPE: Average EC50, UT-7-luciferase assay (nM)
The answer is to be given in nM; state only the numeric part.

Illustrative cases are given below, each with its answer.
clone 13 scFv-Fc protein (Fc fusion, part only; not given: scFv linker and IgG1 Fc, not shown: a dimerising Fc or GST) scFv, part: QVQLQQSGGGVVQPGRSLRLSCAASGFTFSDYAMHWVRQAPGKGLEWVAVISNHGKSTYYADSVKGRFTISRDNSKHMLYLQMNSLRADDTALYYCARDIALAGDYWGQGTLVTVSADIQMTQSPSSLSASVGDRVTITCRASQSISSYLNWYQQLPGKVPKLLIYGASKLQSGVPSRFSGSGSGTDFTLTISSLQPEDFATYYCLQDYNYPLTFGPGTRLEIK : 4.03
clone 330 scFv-Fc protein (Fc fusion, part only; not given: scFv linker and IgG1 Fc, not shown: a dimerising Fc or GST) scFv, part: EVQLVESGGGLVQPGGSLRLSCAVSGFTFSKYWMTWVRQAPGKGLEWVANIKPDGSEKYYVESVKGRFTISRDNAKNSVYLQMNSVRAEDTAVYYCARVSRGGSFSDWGQGTLVTVSSQSALTQPPSASGSPGQSVTISCTGTSSDVGAYNYVSWYQQHPGKAPKLMIYEVARRPSGVPDRFSGSKSGNTASLTVSGLQAEDEADYYCSSYAGSNNFAVFGRGTKLTVL : 0.0075

Moving on to the next binder.
Lookup: Entry clone 201 scFv-Fc protein (Fc fusion, part only; not given: scFv linker and IgG1 Fc, not shown: a dimerising Fc or GST) scFv, part: QVQLQESGSGLARPSQTLSLTCAVSGGSISSSAFSWNWIRQPPGKGLEWIGYIYHTGITDYNPSLKSRVTISVDRSKNQFSLNVNSVTAADTAVYYCARGHGSDPAWFDPWGKGTLVTVSSQSVLTQPPSVSVSPGQTASITCSGDKLGDKYASWYQQRPGQSPVLVIYRDTKRPSGIPERFSGSNSGNTATLTISGTQAVDEADYYCQAWDSTTSLVFGGGTKLTVL needs its Average EC50, UT-7-luciferase assay filled in; supply it.
Found: 8.28
